Recorded values, source ChEMBL document CHEMBL1134457.

method.summary: Inhibition of [3H]-BTX binding to cardiac voltage-gated sodium channel
Type: functional, Rattus norvegicus

| molecule.smiles | IC50 (nM) |
| --- | --- |
| Cc1nc(OCCCCCN2CCCCC2)cc(-c2ccc(F)cc2)n1 | 1000 |

====

method.summary: Inhibition of [3H]BTX binding to cardiac voltage-gated sodium channel
Design: species or system Rattus norvegicus
IC50 listing for selected molecules.
assay.metric: IC50

| molecule | meas.value |
| --- | --- |
| CCCN(c1ccncc1)n1ccc2ccccc21 | 5500 nM |
| Cc1cccc(C)c1NC(=O)Nc1ccncc1 | 29000 nM |
| CCN(CC)CC(=O)Nc1c(C)cccc1C | 113000 nM |
| Cc1ccc(-c2nc(C)c(CN3CCN(C(c4ccc(F)cc4)c4ccc(F)cc4)CC3)[nH]2)cc1 | 119 nM |
| CC1CCCC(C)N1CCCNC(=O)C(c1ccccc1)c1ccccc1 (stereo unspecified) | 46 nM |
| NC(=O)N1c2ccccc2C=Cc2ccccc21 [CARBAMAZEPINE] | 131000 nM |
| Cc1cccc(C)c1NC(=O)/C=C1/SCC(=O)N1C | 25000 nM |
| COc1ccccc1OCCNCC(O)COc1cccc2[nH]c3ccccc3c12 (stereo unspecified) | 1700 nM |
| Fc1ccc(C(c2ccc(F)cc2)N2CCN(C/C=C/c3ccccc3)CC2)cc1 | 350 nM |
| CN(c1nc2ccccc2s1)C1CCN(C[C@H](O)COc2ccc(F)c(F)c2)CC1 | 280 nM |
| Cc1cccc(C)c1N1C(=O)c2ccc(N)cc2C1=O | 110 nM |
| COc1ccc(CN2CCN(C(c3ccc(F)cc3)c3ccc(F)cc3)CC2)c(OC)c1OC | 26 nM |
| O=C1NC(=O)C(c2ccccc2)(c2ccccc2)N1 | 40000 nM |
| COc1ccc(CCN(C)CCCC(C#N)(c2ccc(OC)c(OC)c2)C(C)C)cc1OC (stereo unspecified) | 2500 nM |
| NC1CCc2c(-c3ccccc3)[nH]c3cccc1c23 (stereo unspecified) | 1100 nM |
| Nc1nnc(-c2cccc(Cl)c2Cl)c(N)n1 | 114000 nM |
